For each record, write down the corresponding IC50.
# TEST TARGET: CDK2/CyclinA2 (Homo sapiens)
# EXPERIMENT: CDK2 inhibition assay (BPS Bioscience kit, Kinase-Glo Max luminescence)
# SETUP CONDITIONS: four concentrations 0.01, 0.1, 1, 10 µM, triplicate, mean ± SD, read-out: Enzyme Inhibition IC50 CDK-2
Give a bare numeral; the unit nM is implied.

Recorded IC50 (compound CCOC(=O)c1c(Nc2ccccc2)nn2c(-c3ccco3)c(C#N)cnc12 [11g] ): 220

Recorded IC50 (compound CCOC(=O)c1c(Nc2ccccc2)nn2c(-c3ccc4ccccc4c3)ccnc12 [6r] ): 200

Recorded IC50 (compound COc1ccc(-c2ccnc3c(C#N)c(Nc4ccccc4)nn23)cc1OC [6d] ): 550

Recorded IC50 (compound CCOC(=O)c1c(Nc2ccccc2)nn2c(-c3ccccc3)ccnc12 [6k] ): 1580

* * *

For each record, write down the corresponding pIC50.
# TEST TARGET: CDK2/CyclinA2 (Homo sapiens)
# EXPERIMENT: CDK2 inhibition assay (BPS Bioscience kit, Kinase-Glo Max luminescence)
# SETUP CONDITIONS: four concentrations 0.01, 0.1, 1, 10 µM, triplicate, mean ± SD, read-out: Enzyme Inhibition IC50 CDK-2
Scale note: pIC50 = -log10(concentration in M).

Recorded pIC50 (compound `CCOC(=O)c1c(Nc2ccccc2)nn2c(-c3cccs3)ccnc12` ): 7.05

Recorded pIC50 (compound `CCOC(=O)c1c(Nc2ccccc2)nn2c(-c3ccc(OC)cc3)ccnc12` ): 5.97

Recorded pIC50 (compound `CCOC(=O)c1c(Nc2ccccc2)nn2c(-c3ccc(Cl)cc3)ccnc12` ): 6.12

Recorded pIC50 (compound `CCOC(=O)c1c(Nc2ccccc2)nn2c(-c3ccc(Br)cc3)ccnc12` ): 6.18

Recorded pIC50 (compound `CCOC(=O)c1c(Nc2ccccc2)nn2c(-c3ccc(OC)c(OC)c3)ccnc12` ): 6.11
